Biological target: T1, extracellular domain of human KLB expressed with C-terminal HA and hexahistidine tags (human, UniProt Q86Z14 1-996)
T1 construct: also called hKLB-HA-6His; hKLB-HA-6his
T1 sequence: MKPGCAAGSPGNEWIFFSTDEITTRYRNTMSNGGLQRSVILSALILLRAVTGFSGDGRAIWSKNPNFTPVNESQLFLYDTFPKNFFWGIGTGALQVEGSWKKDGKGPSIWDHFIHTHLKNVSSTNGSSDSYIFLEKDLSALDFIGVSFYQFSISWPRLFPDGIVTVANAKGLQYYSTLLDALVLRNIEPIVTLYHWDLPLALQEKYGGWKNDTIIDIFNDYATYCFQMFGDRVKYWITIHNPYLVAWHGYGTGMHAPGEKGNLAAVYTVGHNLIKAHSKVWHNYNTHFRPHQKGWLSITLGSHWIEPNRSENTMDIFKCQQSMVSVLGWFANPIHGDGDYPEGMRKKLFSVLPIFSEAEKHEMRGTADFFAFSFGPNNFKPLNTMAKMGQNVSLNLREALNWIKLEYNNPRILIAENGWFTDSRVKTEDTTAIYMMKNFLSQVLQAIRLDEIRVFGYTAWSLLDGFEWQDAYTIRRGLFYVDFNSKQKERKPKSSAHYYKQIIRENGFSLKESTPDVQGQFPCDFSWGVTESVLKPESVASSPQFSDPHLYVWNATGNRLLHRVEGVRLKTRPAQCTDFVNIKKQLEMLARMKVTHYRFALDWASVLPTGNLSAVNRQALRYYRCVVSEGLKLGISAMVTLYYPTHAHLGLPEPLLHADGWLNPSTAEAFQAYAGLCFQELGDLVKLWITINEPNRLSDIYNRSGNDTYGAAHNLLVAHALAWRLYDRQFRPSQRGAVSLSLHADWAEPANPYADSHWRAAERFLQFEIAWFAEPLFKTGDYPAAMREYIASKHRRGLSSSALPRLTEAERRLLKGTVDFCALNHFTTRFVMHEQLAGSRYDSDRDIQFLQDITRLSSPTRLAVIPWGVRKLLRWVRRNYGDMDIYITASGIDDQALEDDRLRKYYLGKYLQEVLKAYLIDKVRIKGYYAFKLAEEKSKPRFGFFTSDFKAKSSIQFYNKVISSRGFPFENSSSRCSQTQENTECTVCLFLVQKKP
Experiment: SPR, mAb captured, 37 C
Give kon for every item shown.
Answer format: numeric, M⁻¹ s⁻¹ implied, no suffix.

Input H2aM8109N (antibody, V domains shown, mouse IgG2 Fc (H2aM prefix)) VH: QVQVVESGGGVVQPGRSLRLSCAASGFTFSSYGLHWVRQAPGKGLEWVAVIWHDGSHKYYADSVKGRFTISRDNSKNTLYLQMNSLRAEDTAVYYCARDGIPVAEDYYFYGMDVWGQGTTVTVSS VL: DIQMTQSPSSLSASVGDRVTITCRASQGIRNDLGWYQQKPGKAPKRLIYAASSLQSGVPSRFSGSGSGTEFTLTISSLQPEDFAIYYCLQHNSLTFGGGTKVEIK , output reported kon. 211000

Input H4H8881P (antibody, V domains shown, human IgG4 Fc (H4H prefix)) VH: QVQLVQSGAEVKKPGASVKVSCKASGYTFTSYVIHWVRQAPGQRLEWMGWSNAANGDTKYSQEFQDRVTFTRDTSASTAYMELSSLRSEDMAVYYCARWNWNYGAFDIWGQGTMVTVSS VL: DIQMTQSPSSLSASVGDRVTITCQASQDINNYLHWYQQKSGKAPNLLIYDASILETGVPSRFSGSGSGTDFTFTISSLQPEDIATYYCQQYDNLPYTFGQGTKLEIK , output reported kon. 1.45e+06

Input H2aM8092N (antibody, V domains shown, mouse IgG2 Fc (H2aM prefix); also called H2M8092N) VH: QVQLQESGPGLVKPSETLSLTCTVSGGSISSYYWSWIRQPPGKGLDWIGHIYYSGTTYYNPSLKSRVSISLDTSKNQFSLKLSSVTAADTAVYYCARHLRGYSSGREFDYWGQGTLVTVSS VL: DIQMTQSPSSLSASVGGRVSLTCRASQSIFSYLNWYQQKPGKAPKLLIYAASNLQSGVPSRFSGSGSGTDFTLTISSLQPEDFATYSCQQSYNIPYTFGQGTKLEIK , output reported kon. 194000

Reference source for all entries: patent US20170174769A1
